Target: BRD2-BD2 (Homo sapiens (Human), UniProt P25440)
Sequence (P25440 348-455): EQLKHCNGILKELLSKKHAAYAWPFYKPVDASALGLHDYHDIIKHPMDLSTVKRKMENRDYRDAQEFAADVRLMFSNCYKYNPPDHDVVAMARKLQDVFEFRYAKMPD
Assay: isothermal titration calorimetry analysis of binding
Conditions: ITC, BRD2-BD2
Method: b. Isothermal Titration Calorimetry Analysis of Binding to Brd2-BD1 and Brd2-BD2 Binding of compounds to BRD2 was monitored using an ITC200 (Microcal, Piscataway, N.J.). Either Brd2.1 (74-194) or Brd2.2 (348-455) was dialyzed overnight into a solution containing 50 mM HEPES, pH 7.0 and 150 mM NaCl at 15° C. Enzyme concentrations were determined after dialysis by absorbance at 280 nm using a molar extinction coefficient (ε280) of 25,565 M^−1 cm^−1 (2.1) or 16,055 M^−1 cm^−1 (2.2). […]
Let's look at some compounds and their measured ΔG.
All answers are understood in kcal/mol, so give the number only.

Answered cases to consult:
{"molSmiles": "CC(=O)N1c2ccc(-c3ccc[nH]3)cc2[C@H](NC(=O)OC(C)C)C[C@@H]1C", "unitName": "kcal/mol", "ΔG": -9.82}
{"molSmiles": "CC(=O)N1c2ccc(-c3ccsc3)cc2[C@H](NC(=O)OC(C)C)C[C@@H]1C", "unitName": "kcal/mol", "ΔG": -10.25}
{"molSmiles": "CC(=O)N1c2ccc(-c3cc[nH]c3)cc2[C@H](NC(=O)OC(C)C)C[C@@H]1C", "unitName": "kcal/mol", "ΔG": -10.15}
{"molSmiles": "CC(=O)N1c2ccc(-c3ccoc3)cc2[C@H](NC(=O)OC(C)C)C[C@@H]1C", "unitName": "kcal/mol", "ΔG": -8.61}

input: Look up ΔG with BRD2-BD2 (Homo sapiens (Human), UniProt P25440) for this compound: CC(=O)N1c2ccc(-c3cccs3)cc2[C@H](NC(=O)OC(C)C)C[C@@H]1C
output: -10.12

Where these numbers come from: patent US11028051B2
